Tested on: PCTK3;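 note: KINOMEscan kinase panel screen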
Construct: gene CDK18
recorded.conditions: concentration: 1 μM,replicates: in singlicate; n = 1
Give %Inh for every item shown.
Numbers only, in %.

The following compounds have reported results that may help.
compound | target.desc | result.units | %Inh
Cc1nnc(-c2ccc3occ(-c4ccc(S(C)=O)cc4)c3n2)o1 (stereo not drawn) | PCTK3 | % | 0
CN1CCN(CCNc2nc3cc(Oc4ccc(NC(=O)Nc5cc(C(F)(F)F)ccc5F)cc4)ccc3[nH]2)CC1.Cl.Cl | PCTK3 | % | 0
C[C@@H](Oc1cc(-n2cnc3cc(-c4cnn(C)c4)ccc32)sc1C(N)=O)c1ccccc1Cl | PCTK3 | % | 19

Quick one: give me %Inh for each item below, same order please.
1. N#Cc1cccc(C(=O)NC2CCN(c3ccnc(Nc4ccc(F)cc4)n3)C2)c1 (stereo not drawn)
2. Cc1n[nH]c2cc(Nc3ccnc(Nc4cccc(CN5CCOCC5)c4)n3)ccc12
3. CN1CCN(CCCNc2nccc(-c3c(-c4ccc(F)cc4)nn4cc(C(N)=O)ccc34)n2)CC1

1. 0
2. 8
3. 12

Quick one: give me %Inh for each item below, same order please.
1. CCCC(=O)Nc1n[nH]c2ncccc12
2. O=C(Nc1ccccc1)c1cccc(Oc2ccc3nccn3n2)c1
3. Cc1ccn2nc(-c3ccc(F)cc3)c(-c3ccncc3)c2c1.Cl
4. O=C1NCCc2[nH]c(-c3ccncc3)cc21
5. C[C@@H]1CNc2c(sc3ccc4nc(-c5ccc(O)cc5)ccc4c23)C(=O)N1

0
38
7
1
4

Quick one: give me %Inh for each item below, same order please.
1. Cc1cccc2c(-c3ccncc3)c(-c3ccc(F)cc3)nn12.Cl
2. O=C(NOCC1CC1)c1cc(Br)c(F)c(F)c1Nc1ccc(I)cc1Cl
3. NC(=O)Nc1sc(-c2ccc(F)cc2)cc1C(N)=O
4. COc1cc2c(Nc3ccc(NC(=O)c4ccccc4)cc3)ncnc2cc1OCCCN1CCOCC1
5. Cn1ccc2ncnc(Oc3ccc(NC(=O)Nc4cnn(C(C)(C)C)c4)c(Cl)c3)c21
6. Cn1ccc2ncnc(Oc3ccc(NC(=O)Nc4cccc(C(F)(F)F)c4)c(F)c3)c21
7. Cl.c1ccc(Oc2ccc(Nc3ccnc4cc(-c5ccc(CN6CCNCC6)o5)ccc34)cc2)nc1

[0, 0, 0, 28, 0, 1, 2]
